Recorded pIC50 by entry
- system.under.test: human proteinase 3 (Homo sapiens)
- Construct: purchased Elastin Products Company, USA
- Sequence (P24158 28-248): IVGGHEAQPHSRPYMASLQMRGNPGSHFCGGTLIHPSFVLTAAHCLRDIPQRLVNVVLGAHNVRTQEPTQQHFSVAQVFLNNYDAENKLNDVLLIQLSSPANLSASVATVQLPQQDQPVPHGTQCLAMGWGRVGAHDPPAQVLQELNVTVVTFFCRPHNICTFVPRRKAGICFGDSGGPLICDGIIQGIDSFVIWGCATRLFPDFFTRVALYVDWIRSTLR
- test.details: Inhibition of human proteinase 3 (Boc-Ala-Ala-Nva-SBzl)
- Format: biochemical
- setup.conditions: 10 nM enzyme, 1 mM substrate, 37° C., pH7.4; read-out: Human proteinase 3 (hPr3) IC50
Non-standard residues stand in square brackets, D forms with d. Residues, ends and D or L forms follow the SMILES beside them. Gly(octyl) = CCCCCCCC[C@H](N)C(=O)O; hTyr = N[C@@H](CCc1ccc(O)cc1)C(=O)O
A value of pIC50 is the negative decimal logarithm of a concentration given in moles per litre.

compound	system.under.test	pIC50
CC[C@H](C)[C@@H]1NC(=O)[C@H](CO)NC(=O)[C@H](C)NC(=O)[C@H]([C@@H](C)O)NC(=O)[C@H](CCC(=O)O)NC(=O)[C@H](CCCNC(=N)N)NC(=O)[C@@H]2CCCN2C(=O)[C@H]2CCCN2C(=O)[C@H](CO)NC(=O)[C@H](CCCCN)NC(=O)[C@H](Cc2ccc(O)cc2)NC(=O)[C@@H]2CCCN2C(=O)[C@@H]2CCCN2C1=O [Example 8] (cyclo(RETASIPPYKS[dP]P))	human proteinase 3 (Homo sapiens)	4.06
CCCCCCCC[C@@H]1NC(=O)[C@@H]2CCCN2C(=O)[C@H]2CCCN2C(=O)[C@H](CC(N)=O)NC(=O)[C@H](CCCCN)NC(=O)[C@H](CCC(N)=O)NC(=O)[C@@H]2CCCN2C(=O)[C@@H]2CCCN2C(=O)[C@H]([C@@H](C)CC)NC(=O)[C@H](CO)NC(=O)[C@H](C)NC(=O)[C@H]([C@@H](C)O)NC(=O)[C@H](CCC(=O)O)NC1=O [Example 1] (cyclo([Gly(octyl)]ETASIPPQKN[dP]P))	human proteinase 3 (Homo sapiens)	5.74
CC[C@H](C)[C@@H]1NC(=O)[C@H](CO)NC(=O)[C@H](C)NC(=O)[C@H]([C@@H](C)O)NC(=O)[C@H](CCc2ccc(O)cc2)NC(=O)[C@H](CCCNC(=N)N)NC(=O)[C@@H]2CCCN2C(=O)[C@H]2CCCN2C(=O)[C@H]([C@@H](C)O)NC(=O)[C@H](CCCCN)NC(=O)[C@H](CCC(N)=O)NC(=O)[C@@H]2CCCN2C(=O)[C@@H]2CCCN2C1=O [Example 17] (cyclo(R[hTyr]TASIPPQKT[dP]P))	human proteinase 3 (Homo sapiens)	4.08
CC[C@H](C)[C@@H]1NC(=O)[C@H](CO)NC(=O)[C@H](C)NC(=O)[C@H]([C@@H](C)O)NC(=O)[C@H](CCc2ccc(O)cc2)NC(=O)[C@H](CCCNC(=N)N)NC(=O)[C@@H]2CCCN2C(=O)[C@H]2CCCN2C(=O)[C@H](Cc2ccc(O)cc2)NC(=O)[C@H](CCCCN)NC(=O)[C@H](CCC(N)=O)NC(=O)[C@@H]2CCCN2C(=O)[C@@H]2CCCN2C1=O [Example 5] (cyclo(R[hTyr]TASIPPQKY[dP]P))	human proteinase 3 (Homo sapiens)	5.77

Moving on to another compound below.
[Q] Query for human proteinase 3 (Homo sapiens): what pIC50 does the record show for CCCCCCCC[C@@H]1NC(=O)[C@@H]2CCCN2C(=O)[C@H]2CCCN2C(=O)[C@H](CO)NC(=O)[C@H](CCCCN)NC(=O)[C@H](CCC(N)=O)NC(=O)[C@@H]2CCCN2C(=O)[C@@H]2CCCN2C(=O)[C@H]([C@@H](C)CC)NC(=O)[C@H](CO)NC(=O)[C@H](C)NC(=O)[C@H]([C@@H](C)O)NC(=O)[C@H](CCC(=O)O)NC1=O [Example 3] (cyclo([Gly(octyl)]ETASIPPQKS[dP]P)) ?
[A] 5.84
